Each entry below carries its reported log10(IC50).
- assaySystem: SARS-CoV-2 spike receptor-binding domain (RBD) (SARS-CoV-2, UniProt P0DTC2 319-541)
- assayInfo: indirect ELISA on coated RBD ('ELISA affinity')
metricName: log10(IC50) (log10 of the value in nM)

binder: Nb15 (VHH) VHH: EVQLVESGGGLVAAGGSLRLSCVPSTNIFSANAMGWYRQAPGKQRELVASITSGGNTNYADSVKGRFTISRDNADTVILQMNSLKPEDTAVYYCKGTAYSTTYNSVRDYWGQGTQVTVSS
log10(IC50): -0.33
//
binder: Nb4 (VHH) VHH: QVQLVESGGGLVQAGGSLRLSCVASGSGFEPNAMGWYRQAPGKQRELVAGITSGGNANYADSVKGRFTISRDNVKNTVYLQMNSLKPEDTAVYYCNAVGPRFNPRGSPTNYWGQGTQVTVSS
log10(IC50): -0.17
//
binder: Nb58 (VHH) VHH: QVQLVESGGGLVQAGGSLRLSCAASGRDFSSTVMGWFRQAPGKERELVAWMTVTYDITYYADSVKGRFTISKDNAKNTVYLQANSLKPDDTAVYYCASGALRVGSFSPDYWGQGTQVTVSS
log10(IC50): 0.43
//
binder: Nb34 (VHH) VHH: DVQLVESGGGLVQAGGSLRLSCAASGFTFSNYVMYWGRQAPGKGREWVSGIDSDGSDTAYASSVKGRFTISRDNAKNTLYLQMNNLKPEDTALYYCVKSKDPYGSPWTRSEFDDYWGQGTQVTVSS
log10(IC50): -0.33
//
binder: Nb96 (VHH) VHH: HVQLVESGGGLVQAGDSLRLSCAASGRDFSSYAMGWFRQAPGKEREFVGVISSGDVGTFYEDSVKGRFTISRDDAKNTVDLQMNSLKPEDTAVYYCAAALYVTSTRGSYAYWGQGTQVTVSS
log10(IC50): -1.40
//
binder: Nb11 (VHH) VHH: HVQLVESGGGLVQAGGSLRLSCAVSGASAERVGWFRRAPGKEREFVAAIGANGGSTNYLDSVKGRFTISRDNAKNTVYLQMNSLKPQDTAVYYCAARNLETFDYTYWGRGTQVTVSS
log10(IC50): -0.41
//
binder: Nb90 (VHH) VHH: HVQLVESGGGLVQAGGSLRLSCAVSGRTVSSYVMGWFRQAPGKEREFVAGIGRTGMTITADSVKGRFTISRDNAKNLVYLQMNSLKSEDTAVYWCAAGVRDFAPRIDSYDYWGQGTQVTVSS
log10(IC50): 0.61
//
binder: Nb9 (VHH) VHH: HVQLVESGGGLVQTGGSLRLSCAFSGYTFSTFPTAWFRQAPGKEREFVAGIRWNGGSRDYTEYADFVKGRFTISRDNAKNMIYLQMISLKPEDTALYYCAASHGVVDGTSVNGYRYWGQGTQVTVSS
log10(IC50): -0.05
